As shown below, each of these compounds has a reported melting point value.

test smiles | melting point
CNC(=O)/C(=N/OC)c1ccccc1COc1ccc(-c2ccccc2)cc1 | 136 to 137 °C
O=C(NCCCCCCCCCCCCOC(=O)Oc1ccc([N+](=O)[O-])cc1)OC1CCN(C(=O)Oc2ccc(Oc3ccccc3)cc2)CC1 | 96 to 98 °C
CCOC(=O)c1c(-c2ccncc2)[nH]c(-c2ccncc2)c1-c1ccccc1 | 99 to 100 °C
O=C1Cc2ccccc2Sc2cc(Cl)c(F)cc21 | 125 to 126 °C
O=[N+]([O-])c1sc(I)nc1I | 135 °C
Cn1ncnc1-c1oc2cccc(OCCc3ccc(F)cc3)c2c(=O)c1O | 215 to 217 °C
COc1ccc(NN=C(Sc2cc(C)ccc2C)C(C)=O)cc1 | 131 to 134 °C
Cc1cc2ccccc2c(-c2ccccc2I)n1 | 111 to 112 °C
COc1nc(CNC(=O)NS(=O)(=O)c2ccccc2S(=O)(=O)N(C)C)nc(OC)n1 | 183 to 189 °C
CCOC=C(C(=O)CCl)C(=O)OCC | 86.5 °C

====

Recorded melting point values for a group of molecules are listed next.

molecule | melting point
COc1ccc(-n2nc(C#N)cc2-c2ccc(S(C)(=O)=O)cc2)cc1Cl | 201 to 203 °C
CN1C(=O)N2C(=NC1(C)C)N(C(=O)Nc1ccc(Cl)c(Cl)c1)c1ccccc12 | 198 to 200 °C
CCOC(=O)c1noc(-c2ccc(Cl)cc2)n1 | 88 to 89 °C
COC(=O)N(C)c1cn2cc(Sc3ccccc3)ccc2n1 | 147 to 149 °C
Cc1oc(-c2ccccc2)nc1COc1ccc(CCCO)cn1 | 89 to 90 °C
O=C(C=Cc1cccnc1)NCCCCN1CCN(C(c2ccccc2)c2ccccc2)CC1 | 143 to 144 °C
O=C(O)Cc1c(C(=O)c2cccc(Cl)c2)[nH]c2cc(Cl)ccc12 | 199 to 201 °C
Cn1c(CNC(=O)c2ccc3ccccc3c2)nc(-c2ccncn2)cc1=O | 250 to 252 °C
CCOC(=O)C1=C(C)NN=C(c2ccccc2)C1c1ccccc1 (stereo not given) | 130 °C
COc1cc(C)nc(NC(=O)NS(=O)(=O)c2cccc(NC(=O)OC(C)C)c2)n1 | 173 to 180 °C

====

Reported melting point values follow for various compounds

compound | melting point
C=CCOc1ccc(F)cc1-c1ccccc1-c1ccccc1 | 48 to 49 °C
CC(=O)NCCc1cccc2ccc(OCCCO)cc12 | 141 to 142 °C
CSc1nn2c(N3C[C@@H](C)N[C@@H](C)C3)cc(C)nc2c1S(=O)(=O)c1ccccc1 | 220 to 221 °C
CC(=O)Nc1ccc(OC/C=C(\C)C=O)cc1 | 127 to 130 °C
CCC(Oc1ccc(C)cc1C)C(=O)OC1CC(O)C=C2C=CC(C)C(CCC3CC(O)CC(=O)O3)C21 (mixture of isomers) | 159 to 160 °C
Cc1c(Cl)cc(O)cc1Cl | 92 to 93 °C
O=C(O)CCc1cnoc1-c1ccc(Cl)cc1Cl | 106 to 107 °C
CCCCCCCCC1CC(c2ccc(-c3ccc(CCCCC)cc3)cc2)OC1=O (stereo not given) | 114 to 118 °C
N[C@H]1CC[C@H](Nc2ccnc3cc(C(F)(F)F)ccc23)CC1 | 186 °C
Cc1ccc(NC(=O)c2cc(Cl)ccc2NCC2CCN(C(C)C)CC2)nc1 | 147 to 148 °C
